Below, each of the molecules is paired with its reported TGI value.
- Test system: HCT-15 colon
- measurementProtocol: NCI tumour cell line growth inhibition, 48 h

Cc1c(OCCCOc2ccc3c(=O)cc(-c4ccccc4)oc3c2C)ccc2c(=O)cc(-c3ccccc3)oc12 | > 100 µM
O=P(O)(O)OCC1OC(n2cnc3c(NCc4ccco4)ncnc32)C(O)C1O (stereo unspecified) | > 56.9 µM
C/C=C/c1cc2c(c(=O)o1)C(=O)[C@@H](O)[C@H](C)O2 | 25.9 µM
COC(=O)CCCC1(CCCC(=O)OC)CCCCCCCCC(CCCC(=O)OC)(CCCC(=O)OC)C(=O)C1=O | > 100 µM
CC1(C)OC2CC3COC(=O)C3CC2O1 (stereo unspecified) | > 100 µM

stdin: Reported TGI for O=C(O)CNc1ccc(Cl)c(Cl)c1 : what is it?
stdout: 95.3 µM

stdin: Moving on to O=C(NC12CC3CC(CC(C3)C1)C2)C(=O)c1c[nH]c2ccc(Br)cc12
stdout: > 100 µM

stdin: Then what about the molecule NC(=S)Nc1ccc2c(c1)oc1ccccc12 ?
stdout: > 100 µM

stdin: Now the molecule Cc1c(N)nc([C@H](CC(N)=O)NC[C@H](N)C(N)=O)nc1C(=O)N[C@H](C(=O)N[C@H](C)[C@@H](O)CC(=O)N[C@H](C(=O)NC(O[C@@H]1O[C@@H](C)[C@@H](N)[C@@H](O)[C@H]1O)C(O)c1nc(-c2nc(C(=O)NCCCCN)cs2)cs1)[C@@H](C)O)[C@@H](O[C@@H]1O[C@@H](CO)[C@@H](O)[C@H](O)[C@@H]1O[C@H]1O[C@H](CO)[C@@H](O)[C@H](OC(N)=O)[C@@H]1O)c1c[nH]cn1 (stereo partly specified)
stdout: > 50 µM

stdin: What do you get for O=S(c1ccccc1)C1CC2CC3(CCC21O)OCCO3 (stereo unspecified) ?
stdout: > 100 µM

stdin: And the next one, N/C(=N\NC(=O)c1nc2ccccc2s1)c1ccccn1 ?
stdout: 31.9 µM
